From: patent US20110143948A1

Would you mind telling me the reported ncRNA array expression, patient 3 of each entry?
Test system: ncRNAs (SEQ ID NO 28-89)
Experiment: ncRNA arrays of melanocytes, keratinocytes, normal skin, melanoma cell lines and patient samples
Design: species or system human
Conditions: melanoma patient 3 sample compared to normal skin

Lab note: SEQ ID NO 55 (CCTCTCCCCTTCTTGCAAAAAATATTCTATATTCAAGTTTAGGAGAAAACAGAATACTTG; listed as DNA, chemistry not given here; listed as Homo sapiens) gave ncRNA array expression, patient 3 of −1.638

Recorded ncRNA array expression, patient 3 (substance SEQ ID NO 37 (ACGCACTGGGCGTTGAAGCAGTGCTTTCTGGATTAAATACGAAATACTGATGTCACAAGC; DNA, backbone and methylation of C not given here; listed as Homo sapiens) ): 0.3993

Data point: SEQ ID NO 75 (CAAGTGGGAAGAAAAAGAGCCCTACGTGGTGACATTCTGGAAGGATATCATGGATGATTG; listed as DNA, chemistry not given here; listed as Homo sapiens) ; ncRNA array expression, patient 3 = 0.2177

Kindly note the recorded ncRNA array expression, patient 3 for SEQ ID NO 57 (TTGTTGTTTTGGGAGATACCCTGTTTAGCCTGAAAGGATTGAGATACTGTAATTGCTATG; listed as DNA, chemistry not given here; listed as Homo sapiens) , which is 2.081

// field: ncRNA array expression, patient 3; key: SEQ ID NO 73 (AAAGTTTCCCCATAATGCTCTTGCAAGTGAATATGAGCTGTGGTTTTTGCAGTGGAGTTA; listed as DNA, chemistry not given here; listed as Homo sapiens) ; value = 1.314
